Target: ZNF217 C286 (O75362) (Homo sapiens, UniProt O75362)
Sequence (O75362 whole entry): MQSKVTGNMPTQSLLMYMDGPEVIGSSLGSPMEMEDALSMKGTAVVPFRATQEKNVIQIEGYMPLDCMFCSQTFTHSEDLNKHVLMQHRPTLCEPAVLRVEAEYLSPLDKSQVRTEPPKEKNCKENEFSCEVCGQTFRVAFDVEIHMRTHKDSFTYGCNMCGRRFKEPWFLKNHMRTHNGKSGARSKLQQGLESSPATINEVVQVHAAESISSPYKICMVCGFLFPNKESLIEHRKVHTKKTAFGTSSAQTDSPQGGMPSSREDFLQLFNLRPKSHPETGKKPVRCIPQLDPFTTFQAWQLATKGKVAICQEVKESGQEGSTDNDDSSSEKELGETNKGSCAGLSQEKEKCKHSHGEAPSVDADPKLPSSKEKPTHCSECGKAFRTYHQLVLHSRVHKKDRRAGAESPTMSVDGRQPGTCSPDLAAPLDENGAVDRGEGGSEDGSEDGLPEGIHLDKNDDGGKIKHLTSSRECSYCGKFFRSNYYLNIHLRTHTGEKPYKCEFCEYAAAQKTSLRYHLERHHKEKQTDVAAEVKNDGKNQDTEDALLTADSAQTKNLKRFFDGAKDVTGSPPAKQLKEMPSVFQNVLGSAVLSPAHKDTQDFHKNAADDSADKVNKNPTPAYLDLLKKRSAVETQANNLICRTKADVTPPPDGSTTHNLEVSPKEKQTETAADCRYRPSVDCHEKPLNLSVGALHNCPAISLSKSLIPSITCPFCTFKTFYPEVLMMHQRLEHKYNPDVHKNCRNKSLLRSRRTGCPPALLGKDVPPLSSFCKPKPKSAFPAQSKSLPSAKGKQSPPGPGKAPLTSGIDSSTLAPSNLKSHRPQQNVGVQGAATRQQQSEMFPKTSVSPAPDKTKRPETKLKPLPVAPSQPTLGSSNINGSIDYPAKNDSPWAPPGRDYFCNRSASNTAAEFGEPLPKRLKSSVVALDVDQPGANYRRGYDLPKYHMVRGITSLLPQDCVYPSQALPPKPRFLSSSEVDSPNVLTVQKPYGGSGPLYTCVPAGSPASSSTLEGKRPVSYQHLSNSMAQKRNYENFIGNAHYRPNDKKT
Test: Competitive isoTOP-ABPP, cell lysates
Type: binding
Details: 500 μM, invitro, 231
MEASURED_QUANTITY: isoTOP-ABPP ratio O75362_C286
The answer should be a number; do not append a unit.

Would you please look over these solved cases?
>>> assay_result("Cn1cc(S(=O)(=O)N2CCOCC2)cc1C(=O)NC(=O)CCl")
1.2
>>> assay_result("O=C(CCl)NC(=O)NC12CC3CC(CC(C3)C1)C2")
1.0
>>> assay_result("O=C(CCl)N1CCN(S(=O)(=O)c2ccccc2F)CC1")
1.1
>>> assay_result("CNS(=O)(=O)C=Cc1ccc2c(ccn2Cc2ccccc2)c1")
0.9

Query string: Return isoTOP-ABPP ratio O75362_C286 (reported value) for this compound: "O=C(CCl)NCCc1c[nH]c2ccccc12"
Result string: 0.9

* * *

Biological target: cysteines in MDA-MB-231 and Ramos cells (Homo sapiens, UniProt Q86UY8)
Sequence (Q86UY8 whole entry, the tested form may be a part): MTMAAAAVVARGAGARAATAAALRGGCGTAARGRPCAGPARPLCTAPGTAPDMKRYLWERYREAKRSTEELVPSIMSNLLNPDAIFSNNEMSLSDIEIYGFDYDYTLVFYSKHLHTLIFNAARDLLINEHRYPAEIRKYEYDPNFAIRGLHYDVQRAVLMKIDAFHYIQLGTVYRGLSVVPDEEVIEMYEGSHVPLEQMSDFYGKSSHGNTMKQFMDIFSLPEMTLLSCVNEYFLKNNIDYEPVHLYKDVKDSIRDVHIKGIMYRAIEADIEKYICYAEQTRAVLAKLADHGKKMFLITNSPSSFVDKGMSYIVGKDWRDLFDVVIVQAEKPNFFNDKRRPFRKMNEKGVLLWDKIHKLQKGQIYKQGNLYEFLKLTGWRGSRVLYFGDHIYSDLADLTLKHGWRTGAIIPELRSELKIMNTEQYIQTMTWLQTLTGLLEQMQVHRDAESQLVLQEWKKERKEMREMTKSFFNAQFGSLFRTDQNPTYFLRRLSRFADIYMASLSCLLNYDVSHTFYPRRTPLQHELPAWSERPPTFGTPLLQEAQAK
Assay: Competitive isoTOP-ABPP in situ (fragment-treated cells)
Format: cell-based
Details: 200 μM, insitu, 231
Use Criterion met when the recorded isoTOP-ABPP ratio Q86UY8_C276 is no lower than 2; use Criterion not met when it is lower.

Worked examples, 7 compounds total:
>>> label_value("O=C(CCl)NC(=O)NC12CC3CC(CC(C3)C1)C2")
"Criterion met"
>>> label_value("O=C(CCl)N1CCN(S(=O)(=O)c2ccccc2F)CC1")
"Criterion met"
>>> label_value("CC1CCc2ccccc2N1C(=O)CCl (centres unmarked)")
"Criterion met"
>>> label_value("O=C(CCl)Nc1cccc2ncccc12")
"Criterion not met"
>>> label_value("O=C(CCl)NCCc1c[nH]c2ccccc12")
"Criterion not met"
>>> label_value("O=C(CCl)NC12CC3CC(CC(C3)C1)C2")
"Criterion not met"
>>> label_value("Cc1ccc(C=C(C#N)C(=O)NCCN2CCOCC2)cc1")
"Criterion not met"

Now for a further compound.
Query string: Given the entry "CC(C)CCOCCNC(=O)CCl" , answer whether its isoTOP-ABPP ratio Q86UY8_C276 meets or surpasses 2.
Result string: Criterion not met

* * *

Target: UniProt Q6L8Q7
Sequence (Q6L8Q7 43-609): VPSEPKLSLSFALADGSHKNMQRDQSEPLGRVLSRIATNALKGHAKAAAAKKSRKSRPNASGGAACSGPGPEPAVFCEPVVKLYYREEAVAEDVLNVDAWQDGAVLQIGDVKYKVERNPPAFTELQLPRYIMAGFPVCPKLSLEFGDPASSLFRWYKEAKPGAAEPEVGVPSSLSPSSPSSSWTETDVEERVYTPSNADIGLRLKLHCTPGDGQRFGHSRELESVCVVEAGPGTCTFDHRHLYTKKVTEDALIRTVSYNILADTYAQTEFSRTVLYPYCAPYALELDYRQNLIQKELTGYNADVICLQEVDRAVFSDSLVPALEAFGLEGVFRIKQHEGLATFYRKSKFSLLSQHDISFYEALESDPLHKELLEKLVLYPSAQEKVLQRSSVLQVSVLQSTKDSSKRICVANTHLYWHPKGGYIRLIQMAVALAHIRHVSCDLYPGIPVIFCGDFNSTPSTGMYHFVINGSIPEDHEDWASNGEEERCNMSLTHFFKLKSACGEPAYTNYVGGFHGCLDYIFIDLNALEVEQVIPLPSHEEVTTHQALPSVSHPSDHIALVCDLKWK
Test: Competitive isoTOP-ABPP, cell lysates
Type: binding
Conditions: 500 μm in-vitro ramos_231
Below: a set of entries, each annotated with reported isoTOP-ABPP ratio (reactivity profile), Q6L8Q7_C108.

Would you please look over these solved cases?
>>> assay_result("CC(C)CCOCCNC(=O)CCl [compound 27]")
0.5
>>> assay_result("COc1ccccc1OCCNC(=O)CCl [compound 28]")
1.0
>>> assay_result("O=C(CCl)N1CCC(C(O)(c2ccccc2)c2ccccc2)CC1 [compound 20]")
1.6
>>> assay_result("CC(Cl)C(=O)Nc1cc(C(F)(F)F)cc(C(F)(F)F)c1 (centres unmarked) [compound 25]")
0.8

Query string: Return isoTOP-ABPP ratio (reactivity profile), Q6L8Q7_C108 (reported value) for this compound: N#C/C(=C\c1cc(C(F)(F)F)cc(C(F)(F)F)c1)C(N)=O [compound 23]
Result string: 1.0
